Test system: S. aureus CIP 65.6
assay procedure: MIC, microdilution method (9.1)
Assay type: cell-based, Staphylococcus aureus
condition notes: Staphylococcus aureus, CIP65, read after 18 h, read-out: MIC
Measured MIC values are reported for all entries that follow.
observable: MIC (µg/mL)

compound	measured on	observable	readout relation	value observed
CC(C)(C)OC(=O)NCC(NC(=O)c1c[nH]c2cc(Br)ccc12)c1c[nH]c2ccccc12 (stereo not drawn)	S. aureus CIP 65.6	MIC	=	16
CC(C)(C)OC(=O)NCC(NC(=O)c1ccccc1)c1c[nH]c2ccc(Br)cc12 (stereo not drawn)	S. aureus CIP 65.6	MIC	>	128
CC(C)(C)OC(=O)NCC(NC(=O)c1c[nH]c2cc(Br)ccc12)c1c[nH]c2cc(Br)ccc12 (stereo not drawn)	S. aureus CIP 65.6	MIC	=	1
Cn1cc(C(=O)NC(CNC(=O)OC(C)(C)C)c2c[nH]c3ccc(Br)cc23)c2cc(Br)ccc21 (stereo not drawn)	S. aureus CIP 65.6	MIC	>	128
O=C(NC(C(=O)NCCCCO)c1c[nH]c2ccc(Br)cc12)c1c[nH]c2ccc(Br)cc12 (stereo not drawn)	S. aureus CIP 65.6	MIC	=	32
CC(C)(C)OC(=O)NCC(NC(=O)c1c[nH]c2cc(Cl)ccc12)c1c[nH]c2ccc(Cl)cc12 (stereo not drawn)	S. aureus CIP 65.6	MIC	=	4

###

Below is a list of entries, each paired with its recorded log10 of MIC value.
Tested on: S. aureus CIP 65.6
assay procedure: MIC, microdilution method (9.1)
Assay type: cell-based, Staphylococcus aureus
condition notes: Staphylococcus aureus, CIP65, read after 18 h, read-out: MIC
observable: log10 of MIC (log10 of the value in µg/mL)

compound	log10 of MIC
CC(NC(=O)c1c[nH]c2ccc(Br)cc12)c1c[nH]c2ccc(Br)cc12 (stereo not shown) [Compound 4]	0.30
CC(C)(C)OC(=O)NCC(NC(=O)c1c[nH]c2ccc(Br)cc12)c1c[nH]c2ccccc12 (stereo not shown) [Compound 3c]	0.90
CC(C)(C)OC(=O)NCC(NC(=O)c1c[nH]c2cc(Br)ccc12)c1c[nH]c2ccc(Br)cc12 (stereo not shown) [Compound 3g]	0.30
CC(C)(C)OC(=O)NCC(NC(=O)c1c[nH]c2ccc(Cl)cc12)c1c[nH]c2ccc(Cl)cc12 (stereo not shown) [Compound 6a]	0.60
CC(C)(C)OC(=O)NCC(NC(=O)c1c[nH]c2ccccc12)c1c[nH]c2ccc(Br)cc12 (stereo not shown) [Compound 3b]	0.90
NCCCCNC(=O)C(NC(=O)c1c[nH]c2ccc(Br)cc12)c1c[nH]c2ccc(Br)cc12 (stereo not shown) [Compound 16]	0.90
O=C(NC(CO)c1c[nH]c2ccc(Br)cc12)c1c[nH]c2ccc(Br)cc12 (stereo not shown) [Compound 13]	0.60
CC(C)(C)OC(=O)NCC(NC(=O)c1c[nH]c2ccc(Br)cc12)c1c[nH]c2ccc(Br)cc12 (stereo not shown) [Compound 3f]	0.00
CC(C)(C)OC(=O)NCC(NC(=O)C(F)(F)F)c1c[nH]c2ccc(Br)cc12 (stereo not shown) [Compound 9]	2.11
CC(C)(C)OC(=O)NCC(NC(=O)c1c[nH]c2ccccc12)c1c[nH]c2cc(Br)ccc12 (stereo not shown) [Compound 3d]	0.90
COC(=O)C(NC(=O)c1c[nH]c2ccc(Br)cc12)c1c[nH]c2ccc(Br)cc12 (stereo not shown) [Compound 11]	0.60
CC(C)(C)OC(=O)NCC(NC(=O)c1c[nH]c2ccc(Br)cc12)c1c[nH]c2cc(Br)ccc12 (stereo not shown) [Compound 3h]	0.30

Values compiled from patent US9676715B2.
